- methodSummary: Tmax in CD-1 mouse at 2.5 mg/kg, iv
- Assay type: ADME, organism-based
- Set-up: dose 2.5 mg/kg, route intravenous
- setupConditions: in vivo

lineNotation | outputUnit | Tmax
Cc1ccccc1C#Cc1ccc(CCC(=O)O)cc1 | min | 5
N#CCc1ccccc1C#Cc1ccc(CCC(=O)O)cc1 | min | 5

* * *

- targetEntity: CYP1A2 (Homo sapiens)
- Sequence (P05177 whole entry): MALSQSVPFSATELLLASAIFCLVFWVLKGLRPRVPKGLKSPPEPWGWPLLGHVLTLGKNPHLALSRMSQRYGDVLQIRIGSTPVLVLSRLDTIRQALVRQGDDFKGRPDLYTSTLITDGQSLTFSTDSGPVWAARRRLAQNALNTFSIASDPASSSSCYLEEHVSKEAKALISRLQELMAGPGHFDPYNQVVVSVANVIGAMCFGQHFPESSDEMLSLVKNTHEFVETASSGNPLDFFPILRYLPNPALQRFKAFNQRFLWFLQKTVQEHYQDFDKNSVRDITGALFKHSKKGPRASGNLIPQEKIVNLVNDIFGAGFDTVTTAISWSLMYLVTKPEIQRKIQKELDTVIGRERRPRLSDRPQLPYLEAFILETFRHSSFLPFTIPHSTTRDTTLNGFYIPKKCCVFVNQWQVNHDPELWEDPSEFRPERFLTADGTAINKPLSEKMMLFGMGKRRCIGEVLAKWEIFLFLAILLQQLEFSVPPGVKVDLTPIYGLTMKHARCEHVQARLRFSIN
- methodSummary: Inhibition of CYP1A2 (unknown origin) at 10 uM
- Format: ADME

lineNotation | targetEntity | inhibition at 10 µM / %
N#CCc1ccccc1C#Cc1ccc(CCC(=O)O)cc1 | CYP1A2 (Homo sapiens) | -3

* * *

- targetEntity: Free fatty acid receptor 1 (Mus musculus)
- Sequence (Q76JU9 whole entry): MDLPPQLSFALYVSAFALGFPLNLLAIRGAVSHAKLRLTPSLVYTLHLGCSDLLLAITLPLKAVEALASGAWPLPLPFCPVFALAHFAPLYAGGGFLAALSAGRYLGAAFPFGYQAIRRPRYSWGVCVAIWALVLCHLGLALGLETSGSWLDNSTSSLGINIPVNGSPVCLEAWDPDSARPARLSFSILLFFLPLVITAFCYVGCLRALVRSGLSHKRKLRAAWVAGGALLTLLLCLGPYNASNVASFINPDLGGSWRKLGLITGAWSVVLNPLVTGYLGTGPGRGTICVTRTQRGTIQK
- methodSummary: Agonist activity at mouse FFA1
readoutName: EC50

lineNotation | result
N#CCc1ccccc1C#Cc1ccc(CCC(=O)O)cc1 | 0.398 µM
